Data credit: PubChem BioAssay (NCI)

test system: HS 578T breast; experiment: NCI-60 one-dose screen, 48 h (100 = growth as untreated, 0 = no growth, -100 = all killed); conditions: 10 µM unless noted
This is part of a sample that, as a whole, favours compounds with a hit. Of some 83,000 tested, about 20% had one in any assay. Active and inactive are the calls of the source. Rule for the calls: active = growth percent below 10; inactive = the rest.
Observation Type: growth

Identify measured growth associated with O=C(CCCCCCCCC(=O)Nc1cccc(C2=NCCN2)c1)Nc1cccc(C2=NCCN2)c1
113% (inactive)

Identify measured growth associated with CCOC(=O)CC[C@H](NC(=O)c1ccc(NC)c2ccccc12)C(=O)OCC
105% (inactive)

Identify measured growth associated with O=C1CS/C(=N/c2nnc(-c3ccc(O)cc3)s2)N1
95.4% (inactive)

Identify measured growth associated with S=C(Nc1ccc(Cl)cc1)c1ccccn1
95.9% (inactive)

Identify measured growth associated with O=C(Nc1ccc(S(=O)(=O)NC2CCCCCC2)cc1)C(c1ccccc1)S(=O)(=O)c1ccc(F)cc1 (centres undefined)
-2.41% (active)

Identify measured growth associated with O=C(Nc1nc2ccc(C(F)(F)F)cc2s1)c1cc(Cl)ccc1O
5.64% (active)

Identify measured growth associated with C=C(C)[C@@H]1CC[C@]2(C(=O)OCCOCCOCC[P+](c3ccccc3)(c3ccccc3)c3ccccc3)CC[C@]3(C)[C@H](CC[C@@H]4[C@@]5(C)CC[C@H](C)C(C)(C)[C@@H]5CC[C@]43C)[C@@H]12
-39.2% (active)

Identify measured growth associated with c1ccc(Sc2ncccn2)nc1
94% (inactive)

Identify measured growth associated with O=C(Nc1cccc(-c2cccc(F)c2)c1)C1CCN(Cc2cccc3cccnc23)CC1
60.9% (inactive)

Identify measured growth associated with N#Cc1c(-c2ccc(Cl)cc2)cc(-c2cc3ccccc3o2)nc1SCC(=O)c1ccc(Cl)cc1
96.3% (inactive)

Identify measured growth associated with NC[C@@H]1CCN(c2cc3c(cc2F)c(=O)n(N)c(=O)n3Cc2ccc(-c3ccccc3)cc2)C1
82.9% (inactive)

Identify measured growth associated with S=c1ssnc1-c1cc2ccccc2o1
61.9% (inactive)

Identify measured growth associated with O=c1c2ccccc2oc2ccc(OCCCCCCN3CCCCCC3)cc12
81.9% (inactive)

Identify measured growth associated with C#CC[C@@H]1C[C@]2(C)[C@H]3CC[C@@H]4[C@H]5[C@H](C(=C)C)CC[C@]5(C(=O)O)CC[C@@]4(C)[C@]3(C)CC[C@H]2C(C)(C)[C@H]1O
33.4% (inactive)

Identify measured growth associated with CC(C)(C)c1nn(-c2ccccc2)c2c1COCN2Cc1ccc(Cl)cc1
86.2% (inactive)

Identify measured growth associated with C=C1C(=O)O[C@H]2[C@H]1CC/C(COC(=O)NCc1nc3ccccc3[nH]1)=C\CC[C@@]1(C)O[C@@H]21
102% (inactive)

Identify measured growth associated with Cc1cc(C)c(NC(=O)c2sc3nc4c(cc3c2N)CCCCCC4)c(C)c1
47.6% (inactive)

Identify measured growth associated with COC(=O)c1ccc(NC(=O)CSc2nc(-c3ccc(F)cc3)nc3ccccc23)cc1
82.8% (inactive)

Identify measured growth associated with C=CCn1c(SCC(=O)Nc2ccc(C(=O)/C=C/c3ccc(Cl)cc3)cc2)nnc1-c1cc(OC)c(OC)c(OC)c1
87.8% (inactive)

----------
tested on: NCI-H226 lung; experiment: NCI-60 one-dose screen, 48 h (100 = growth as untreated, 0 = no growth, -100 = all killed); settings: 10 µM unless noted
Compounds without any hit were thinned out: in the full panel of roughly 83,000, 20% have a hit.
Friendly reminder: growth below 80% is Met, at or above is Not met.

Hello, I'm reviewing records and need to know if growth of COCCc1n(Cc2ccc3ccccc3c2)c2ccccc2[n+]1Cc1ccc2ccccc2c1 is below 80%. Could you check?
Met

Hello, I'm reviewing records and need to know if growth of CCc1c(C(=O)N[C@@H](C(=O)OCc2ccccc2)C(C)O)[nH]c2ccc(Cl)cc12 (some centres undefined) is below 80%. Could you check?
Met

Hello, I'm reviewing records and need to know if growth of [2H]c1cc2c(c([2H])c1F)/C(=C/c1[nH]c(C)c(C(=O)NCCN(CC)CC)c1C)C(=O)N2 is below 80%. Could you check?
Met

Hello, I'm reviewing records and need to know if growth of O=C1CCC23OC(C(O)c4ccccc4N12)C1C(Br)=NOC13 (centres undefined) is below 80%. Could you check?
Not met

Hello, I'm reviewing records and need to know if growth of COc1cc2c(cc1OC)C(Sc1ccc(Cl)cc1)c1c(nc(N)c(C#N)c1N)O2 (centres undefined) is below 80%. Could you check?
Met

Hello, I'm reviewing records and need to know if growth of Cn1c2ccccc2c2c(OC(=O)c3ccccc3)c3c(nc21)-c1ccccc1C3 is below 80%. Could you check?
Not met

Hello, I'm reviewing records and need to know if growth of CCCCCCC/C=C/[C@H]1O[C@]23C(=O)C[C@@]4(C[C@@H](OC5OC(CO)C(O)C(O)C5O)C[C@@H]4[C@H]2C=C1C)OC3=O (some centres undefined) is below 80%. Could you check?
Met

Hello, I'm reviewing records and need to know if growth of CC(=O)c1ccc(NC(=O)CSc2nnc(-c3cc(-c4ccc(Cl)cc4)nc4ccccc34)o2)cc1 is below 80%. Could you check?
Not met
